Where do the numbers come from? From the supplement of paper PMC4466140.

Some binders, each annotated with its measured SPOT peptide array binding signal intensity.
- Target Under Test: ScSho1
- Assay Method Text: SPOT peptide array binding signal intensity (averaged, normalized) (arbitrary units (background-subtracted, floor 0; scale differs between SH3 domains)); higher = stronger binding of the SH3 domain to the peptide

{"Binder": "QFDLKMPSKPIHNLK", "Reported": 198}
{"Binder": "PSRRAPLQLPQLVNK", "Reported": 35}
{"Binder": "GQYRRTIVIPRRFFT", "Reported": 1020}

Then there is this binder:
Exercise: Which value of SPOT peptide array binding signal intensity has been reported for VRTRRRPPPPPIPST in the records?
Solution: 141
